- TESTED SYSTEM: DCN1-UBC12 interaction (Homo sapiens (Human), UniProt Q96GG9)
- Sequence (Q96GG9 60-248 limits assumed): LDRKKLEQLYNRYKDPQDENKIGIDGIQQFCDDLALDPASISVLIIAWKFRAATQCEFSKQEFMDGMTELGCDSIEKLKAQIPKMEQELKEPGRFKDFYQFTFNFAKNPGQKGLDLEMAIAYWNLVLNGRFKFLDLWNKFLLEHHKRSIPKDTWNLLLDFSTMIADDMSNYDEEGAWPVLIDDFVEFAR
- EXPERIMENT NOTES: biochemical
- Assay type: binding
- CONDITION SUMMARY: read-out: TR-FRET IC50
READOUT: IC50 (nM)
# value in nM; strip the unit string

These recorded examples may help you get a feel for the data.
COMPOUND: CCCC(C)N1CCC(N(Cc2ccccc2)C(=O)Nc2cccc(C(C)(C)C)c2)CC1 (stereo not shown)
IC50 (nM): 4200
--
COMPOUND: CCCC(C)N1CCC(N(Cc2ccccc2)C(=O)Nc2ccc(O)cc2C)CC1 (stereo not shown)
IC50 (nM): 2360

Now consider a different compound.
Entry CCCC(C)N1CCC(N(Cc2ccccc2)C(=O)Nc2ccc(C)cc2)CC1 (stereo not shown) : reported IC50 = ?
268

----------
- EXPERIMENT NOTES: in vivo
- CONDITION SUMMARY: male, Plasma Concentration, Repeat Dose (0 and 7.5 hr), time 24.4 hr
READOUT: concentration at 24.4 h (nM)
Supply the numeric figure in nM, leaving out any unit text.

GET /values?readout=concentration at 24.4 h&item= `CCCCN1CCC(N(Cc2ccccc2)C(=O)Nc2ccc(Cl)c(Cl)c2)CC1`
620

----------
- EXPERIMENT NOTES: in vivo
READOUT: half-life

# get_value(readout='half-life', item= CCCCN1CCC(N(Cc2ccccc2)C(=O)Nc2ccc(Cl)c(Cl)c2)CC1 [A7] )
4 to 5 h

----------
Each entry below carries its recorded IC50.
- TESTED SYSTEM: DCN1-UBC12 interaction (Homo sapiens (Human), UniProt Q96GG9)
- EXPERIMENT NOTES: biochemical
- Assay type: binding
- CONDITION SUMMARY: read-out: TR-FRET IC50
Answer with a number only, understood to be in µM.

Recorded results for 3 molecules are shown here.
MOLECULE: CCCC(C)N1CCC(N(Cc2ccccc2)C(=O)Nc2cccc(F)c2)CC1 (stereo not shown)
IC50 [µM]: 0.621
//
MOLECULE: CCCC(C)N1CCC(N(Cc2ccccc2)C(=O)Nc2ccc(C(=O)OC)cc2)CC1 (stereo not shown)
IC50 [µM]: 8.42
//
MOLECULE: CCCC(C)N1CCC(N(Cc2ccccc2)C(=O)Nc2ccn(-c3ccc(Cl)cc3)n2)CC1 (stereo not shown)
IC50 [µM]: 6.47

Reported IC50, molecule `CCCN1CCC(N(Cc2cc(F)cc(C(F)(F)F)c2)C(=O)Nc2cccc(C(F)(F)F)c2)CC1` : ____
0.488

What do we get for `CCC(CC)N1CCC(N(Cc2ccccc2)C(=O)Nc2cc(F)cc(C(F)(F)F)c2)CC1` ?
0.616

And CCCC(C)N1CCC(N(Cc2ccccc2)C(=O)Nc2ccc(Oc3ccccc3)c(C(F)(F)F)c2)CC1 (stereo not shown) ?
0.731

Also check CCCC(C)N1CCC(N(Cc2ccccc2)C(=O)Nc2ccc3cn[nH]c3c2)CC1 (stereo not shown)
2.11

Let us now turn to `CCN1CCC(N(Cc2ccco2)C(=O)Nc2ccc(Br)c(C)c2)CC1`
3

One more molecule: `CCCN1CCC(N(Cc2ccccc2)C(=O)Nc2cccc(C(F)(F)F)c2)CC1`
0.98

Another molecule: CCCc1ccc(NC(=O)N(Cc2ccccc2)C2CCN(C(C)CCC)CC2)cc1 (stereo not shown)
0.47

What would you report for CCCC(C)N1CCC(N(Cc2ccccc2)C(=O)Nc2ccc3c(c2)OC(F)(F)O3)CC1 (stereo not shown) ?
0.281

What about CCCC(C)N1CCC(N(Cc2ccccc2)C(=O)Nc2ccc(Br)cc2C)CC1 (stereo not shown) ?
9.43

How about this molecule: CCCC(C)N1CCC(N(Cc2ccccc2)C(=O)Nc2cc(C)cc(C)c2)CC1 (stereo not shown)
1.38

// repeat for CCCC(C)N1CCC(N(Cc2ccccc2)C(=O)Nc2cc(F)cc(Cl)c2)CC1 (stereo not shown) and report
0.482

Again, but for `CCCCCN1CCC(N(Cc2ccccc2)C(=O)Nc2cc(F)cc(C(F)(F)F)c2)CC1`
1.59

Here is the next molecule: `CCCCN1CCC(N(Cc2ccccc2)C(=O)Nc2cccc(CC)c2)CC1`
0.413

----------
- EXPERIMENT NOTES: in vivo
- CONDITION SUMMARY: male, Testis Concentration (μM), 100 mg/kg, Day 7
READOUT: concentration at 7 day (µM)
Express it in µM; write the number only.

Requested read-out: concentration at 7 day. Entry: `CCCCN1CCC(N(Cc2ccccc2)C(=O)Nc2ccc(Cl)c(Cl)c2)CC1`
31.2

----------
Listing of recorded IC50 by entry.
- TESTED SYSTEM: DCN1-UBC12 interaction (Homo sapiens (Human), UniProt Q96GG9)
- EXPERIMENT NOTES: biochemical
- Assay type: binding
- CONDITION SUMMARY: read-out: TR-FRET IC50

COMPOUND: C#CCCCN1CCC(N(Cc2ccccc2NC(=O)C=C)C(=O)Nc2ccc(Cl)c(Cl)c2)CC1 [A304]
TESTED SYSTEM: DCN1-UBC12 interaction (Homo sapiens (Human), UniProt Q96GG9)
IC50: > 9.74 µM

# input compound: O=C(Nc1cc(F)cc(C(F)(F)F)c1)N(Cc1ccccc1)C1CCN(Cc2ccccc2OCc2ccccc2)CC1 [A214] ; wanted: its IC50
> 22.9 µM

And CCCC(C)N1CCC(N(Cc2ccccc2)C(=O)Nc2cccc(OCc3ccccc3)c2)CC1 (stereo not drawn) [A94] ?
1.29 µM

Here is the next compound: O=C(Nc1ccccc1Cl)NC1CCN(Cc2ccccc2)CC1 [B55]
> 67.6 µM

Proceed to CN1CCC(NC(=O)Nc2cccc(C(F)(F)F)c2)CC1 [B100]
> 68.1 µM

Try this compound next: CCc1ccccc1NC(=O)N(Cc1ccco1)C1CCN(C(C)=O)CC1 [B74]
> 67.6 µM

Similarly, CCCC(C)N1CCC(N(Cc2ccccc2)C(=O)Nc2cccc(C)c2)CC1 (stereo not drawn) [A82] ?
0.883 µM

Field entry: CC(CCN1CCC(N(Cc2ccccc2)C(=O)Nc2cc(F)cc(C(F)(F)F)c2)CC1)c1ccccc1 (stereo not drawn) [A127]
2.23 µM

Again, but for CCCC(C)N1CCC(N(Cc2ccccc2)C(=O)Nc2cc(Cl)c(O)c(Cl)c2)CC1 (stereo not drawn) [A260]
> 62.5 µM

----------
- TESTED SYSTEM: DCN1-UBC12 interaction (Homo sapiens (Human), UniProt Q96GG9)
- EXPERIMENT NOTES: biochemical
- Assay type: binding
- CONDITION SUMMARY: Table 4, commercial compounds; read-out: TR-FRET IC50
pIC50: −log10 of the molar value.
READOUT: pIC50

Example entries and their recorded answers appear below.
CHEM SMILES: Cc1cc(C)n(-c2ccc(NC(=O)C3CCN(C(=O)CC(F)(F)F)CC3)cc2)n1
pIC50: < 4.17
//
CHEM SMILES: Cc1ccccc1/C=C/C(=O)N1CCC(C(=O)Nc2ccc3c(c2)OCO3)CC1
pIC50: < 4.17
//
CHEM SMILES: O=C(Nc1ccc(Cl)cc1Cl)C1CCN(C(=O)c2ccc(F)cc2)CC1
pIC50: < 4.17
//
CHEM SMILES: O=C(Nc1cccc(F)c1)C1CCN(C(=O)c2cnn(-c3ccccc3)c2-n2cccc2)CC1
pIC50: < 4.17

Next up:
Give its pIC50 value. Item: `Cc1ccc(NC(=O)C2CCN(C(=O)c3ccc(Cl)cc3)CC2)cc1Cl`
4.42

----------
- Assay type: in vitro ADME
- CONDITION SUMMARY: Table 10
- Experimental: Test compound stock (10 mM in DMSO, 3 μL) was mixed with citrate phosphate buffered saline (597 μL) to make diluted test compound. Diluted test compound (150 μL) was transferred to a UV plate (pION Inc., Woburn, Mass.) and the UV spectrum (250 nm-500 nm) was read as the reference plate. Each well of the donor plate in a PAMPA sandwich plate (pION Inc., Woburn, Mass.) contained a filter that was painted on one side with 4 μL GIT lipid (pION Inc., Woburn, Mass.) to form a membrane. […]
READOUT: Pampa (×10^−6 cm/s)

Reference set (3 entries):
CHEM SMILES: CCOc1cc(CN2CCC(N(Cc3ccccc3)C(=O)Nc3cccc(C(F)(F)F)c3)CC2)cc(Cl)c1O
RESULT: 110 ± 190 ×10^−6 cm/s

CHEM SMILES: O=C(Nc1cccc(C(F)(F)F)c1)N(Cc1ccccc1)C1CCN(Cc2cccnc2)CC1
RESULT: >2200 ×10^−6 cm/s

CHEM SMILES: O=C(Nc1cccc(C(F)(F)F)c1)N(Cc1ccccc1)C1CCN(Cc2ccc3c(c2)OCO3)CC1
RESULT: >2200 ×10^−6 cm/s

What value of Pampa (×10^−6 cm/s) has been recorded for this entry: `O=C(Nc1cccc(C(F)(F)F)c1)N(Cc1ccccc1)C1CCN(Cc2ccc3c(c2)OCCO3)CC1`
>2200 ×10^−6 cm/s

Now try `O=C(Nc1cccc(C(F)(F)F)c1)N(Cc1ccccc1)C1CCN(Cc2ccc(F)cc2)CC1` .
>2200 ×10^−6 cm/s
